Where do the numbers come from? From paper PMC3086652.

SYSTEM_UNDER_TEST: HLA A*0202 (Homo sapiens, UniProt P04439, D140Y/D185E/D98H/E176V/E277Q/G131W/G231S/I119L/I121R/I166T/I218V/L180W/L300P/L318F/N151K/N90K/P208A/P217A/Q67R/Q86G/Q94H/R138H/R169H/T345S)
ASSAY_DETAILS: biochemical
Format: binding
Ends that are not written are not given here.
# IC50 listing for each entry below

Here's what some known entries look like.
- SEQUENCE_CHAIN: "TINAWIKVV [TV9p30]"
  IC50: "1830 nM"
- SEQUENCE_CHAIN: "KINAWIKVV [TV9p6]"
  IC50: "2950 nM"
- SEQUENCE_CHAIN: "KINAWIKGV [TV9p5]"
  IC50: "433 nM"

Please examine the following record next.
Form: sequence = TINAWIKGV [TV9p29] ; IC50 = 706 nM
